# Measured On: TNFα trimer (Homo sapiens)
# Assay Notes: TNFα FP Competitive Binding Assay
# Protocol Conditions: fluorescence polarization competition; 20 nM TNFα trimer, 1 nM OregonGreen488 probe; read-out: TNF IC50 (TNFα FP binding assay IC50)
Reported Endpoint: IC50

Solved entries (count: 3):
{"Compound": "O=C(NCC1CCCO1)c1ccc(-c2ccc3nc4n(c3c2)C(c2ccccc2)CC4)cc1 (centres unmarked)", "IC50": "1000 to 10000 nM"}
{"Compound": "N#CCOc1cccc(-c2ccc3nc4n(c3c2)C(c2ccccc2)CC4)c1 (centres unmarked)", "IC50": "1000 to 10000 nM"}
{"Compound": "CS(=O)(=O)NCc1cccc(-c2ccc3nc4n(c3c2)C(c2ccccc2)CC4)c1 (centres unmarked)", "IC50": "1000 to 10000 nM"}

Query block: Field request: IC50 | item: OC1(c2cccc(Cl)c2)CCCc2nc3ccc(-c4cnc(N5CCOCC5)nc4)cn3c21 (centres unmarked)
Result block: 1000 to 10000 nM

Query block: Next entry: CC(C)(O)c1ncc(-c2ccc3nc4n(c3c2)C(c2ccccc2)CCC4)cn1 (centres unmarked)
Result block: < 1000 nM

---

# Measured On: TNFα trimer (Homo sapiens, UniProt P01375)
# Sequence (P01375 77-233 limits assumed): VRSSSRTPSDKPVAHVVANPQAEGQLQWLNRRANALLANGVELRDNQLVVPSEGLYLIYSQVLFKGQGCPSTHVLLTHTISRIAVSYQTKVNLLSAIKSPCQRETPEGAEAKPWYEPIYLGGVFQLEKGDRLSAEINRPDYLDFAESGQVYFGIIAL
# Assay Notes: TNFα FP Competitive Binding Assay
# Protocol Conditions: Table BL; read-out: TNF IC50
pIC50: −log10 of the molar value.
Reported Endpoint: pIC50

Query block: State its pIC50 on TNFα trimer (Homo sapiens, UniProt P01375): "C[C@@H]1CN(c2ncc(-c3ccc4nc5n(c4n3)[C@@]3(COC5)COc4ccccc43)cn2)CCN1C(=O)CO"
Result block: > 6.00

---

# Measured On: TNFα trimer (Homo sapiens, UniProt P01375)
# Assay Notes: TNFα FP Competitive Binding Assay
# Protocol Conditions: TNFα FP competitive binding assay; class symbols A/B/C; read-out: TNF IC50
pIC50: −log10 of the molar value.
Reported Endpoint: pIC50

Solved entries (count: 6):
{"Molecule": "COc1cccc([C@@H]2CCc3nc4ccc(-c5cnc(N6CCN7C(=O)NC[C@@H]7C6)nc5)nc4n32)c1 [AN.1]", "Reported Endpoint": "pIC50", "Result": "4.00 to 5.00"}
{"Molecule": "OCCOc1cc(-c2ccc3nc4n(c3n2)[C@@H](c2ccccc2)CC4)ccn1 [AQ.7]", "Reported Endpoint": "pIC50", "Result": "5.00 to 6.00"}
{"Molecule": "c1ccc2c(c1)CCC21COCc2nc3ccc(-c4cnc(N5CCOCC5)nc4)nc3n21 (centres unmarked) [AV.8]", "Reported Endpoint": "pIC50", "Result": "> 6.00"}
{"Molecule": "CC(C)(O)c1ncc(-c2ccc3nc4n(c3n2)[C@@]2(COC4)COc3ccccc32)cn1 [Y.13]", "Reported Endpoint": "pIC50", "Result": "> 6.00"}
{"Molecule": "c1ccc([C@H]2CCc3nc4ccc(-c5ccnc(OC6CCCCC6)c5)nc4n32)cc1 [AS.3]", "Reported Endpoint": "pIC50", "Result": "5.00 to 6.00"}
{"Molecule": "COc1ncc(-c2ccc3nc4n(c3n2)C2(CCOc3ccccc32)COC4)cn1 (centres unmarked) [BA.1]", "Reported Endpoint": "pIC50", "Result": "5.00 to 6.00"}

Query block: Field request: pIC50 | item: O=C1NCC2CN(c3ncc(-c4ccc5nc6n(c5n4)C(c4ccccc4F)COC6)cn3)CCN12 (centres unmarked) [AH.7]
Result block: > 6.00

Query block: Next entry: CN1CCN(c2ncc(-c3ccc4nc5n(c4n3)C3(COC5)COc4ccccc43)cn2)CC1 (centres unmarked) [AU.5]
Result block: 5.00 to 6.00

Query block: Next entry: COc1ccccc1C1CCCc2nc3ccc(-c4cnc(N5CCC6(CC5)CC(O)C6)nc4)cn3c21 (centres unmarked) [AJ.8]
Result block: > 6.00

Query block: Next entry: O=C1NCC2CN(c3ncc(-c4ccc5nc6n(c5c4)C(c4cccc(Cl)c4)COC6)cn3)CCN12 (centres unmarked) [AH.2]
Result block: > 6.00

Query block: Next entry: OC1CCN(c2ncc(-c3ccc4nc5n(c4c3)[C@@H](c3ccccc3)COC5)cn2)CC1(F)F (some centres unmarked) [W.1]
Result block: > 6.00

---

# Measured On: UniProtKB P01375
# Assay Notes: TNFα FP Competitive Binding Assay
# Protocol Conditions: fluorescence polarization competition; 20 nM TNFα trimer, 1 nM OregonGreen488 probe; read-out: TNF IC50 (TNFα FP binding assay IC50)
Reported Endpoint: IC50

{"Compound": "FC(F)(F)C1CN(c2ncc(-c3ccc4nc5n(c4c3)[C@@H](c3ccccc3)COC5)cn2)CCO1 (stereo partly shown)", "Reported Endpoint": "IC50", "Result": "1000 to 10000 nM"}
{"Compound": "CC(C)(O)c1ncc(-c2ccc3nc4n(c3n2)C2(CCOc3ccccc32)COC4)cn1 (stereo not shown)", "Reported Endpoint": "IC50", "Result": "1000 to 10000 nM"}

Query block: Field request: IC50 | item: OC1(c2cc(F)cc(Cl)c2)CCCc2nc3ccc(-c4cnc(N5CCOCC5)nc4)cn3c21 (stereo not shown)
Result block: 1000 to 10000 nM

Query block: Next entry: OC1CCN(c2ncc(-c3ccc4nc5n(c4n3)C(c3ccccc3)CCC5)cn2)CC1 (stereo not shown)
Result block: < 1000 nM

Query block: Next entry: CC(C)(O)c1ncc(-c2ccc3nc4n(c3c2)C(c2cccc(F)c2)CC4)cn1 (stereo not shown)
Result block: < 1000 nM

Query block: Next entry: O=C1CN(c2ncc(-c3ccc4nc5n(c4n3)C(c3ccccc3)CCC5)cn2)CCN1 (stereo not shown)
Result block: < 1000 nM

Query block: Next entry: O=C1NCC2CN(c3ncc(-c4ccc5nc6n(c5n4)C(c4cccc(F)c4)CC6)cn3)CCN12 (stereo not shown)
Result block: < 1000 nM

Query block: Next entry: c1ccc2c(c1)OCCC21COCc2nc3ccc(-c4cnc(NC5CCOC5)nc4)nc3n21 (stereo not shown)
Result block: 1000 to 10000 nM

Query block: Next entry: O=S(=O)(c1ccc(-c2ccc3nc4n(c3c2)C(c2ccccc2)CC4)cc1)N1CCOCC1 (stereo not shown)
Result block: < 1000 nM

Query block: Next entry: CCOC(=O)CNc1ncc(-c2ccc3nc4c(n3c2)C(c2ccccc2OC)CCC4)cn1 (stereo not shown)
Result block: < 1000 nM

Query block: Next entry: c1ccc(C2CCc3nc4cnc(-c5cnc(N6CCOCC6)nc5)cc4n32)cc1 (stereo not shown)
Result block: 1000 to 10000 nM

Query block: Next entry: "OC1CCN(c2ncc(-c3ccc4nc5n(c4n3)[C@@H](c3ccccc3)[C@@H]3C[C@H]5O3)cn2)CC1"
Result block: 10000 to 100000 nM

Query block: Next entry: CC1CN(c2ncc(-c3ccc4nc5n(c4c3)[C@@H](c3ccccc3)COC5)cn2)CC(C)O1 (stereo partly shown)
Result block: 1000 to 10000 nM

Query block: Next entry: CC(C)(O)c1ncc(-c2ccc3nc4n(c3n2)C2(CCc3ccccc32)COC4O)cn1 (stereo not shown)
Result block: 1000 to 10000 nM

Query block: Next entry: Clc1cccc(C2CCCc3nc4ccc(-c5cnc(N6CCOCC6)nc5)cn4c32)c1 (stereo not shown)
Result block: < 1000 nM

Query block: Next entry: Cc1ccc(C2(O)CCCCc3nc4ccc(-c5cnc(N6CCOCC6)nc5)cn4c32)cc1 (stereo not shown)
Result block: 1000 to 10000 nM

Query block: Next entry: C[C@H]1CN(c2ncc(-c3ccc4nc5n(c4n3)C3(COC5)COc4ccccc43)cn2)CCN1C(=O)CO (stereo partly shown)
Result block: < 1000 nM

Query block: Next entry: "CC(C)(O)c1ncc(-c2ccc3nc4n(c3n2)[C@](C)(c2ccccc2)CC4)cn1"
Result block: 10000 to 100000 nM

Query block: Next entry: CS(=O)(=O)c1cncc(-c2ccc3nc4n(c3c2)C(c2ccccc2)CC4)c1 (stereo not shown)
Result block: 10000 to 100000 nM

Query block: Next entry: c1ccc(C2COCc3nc4ccc(-c5cnc(N6CCOCC6)nc5)cc4n32)cc1 (stereo not shown) [Example 19]
Result block: < 1000 nM

Query block: Next entry: COc1ccccc1C1CCCc2nc3ccc(-c4ccc(C(=O)O)s4)cn3c21 (stereo not shown)
Result block: 1000 to 10000 nM

---

# Measured On: TNFα trimer (Homo sapiens, UniProt P01375)
# Assay Notes: TNFα FP Competitive Binding Assay
# Protocol Conditions: TNFα FP competitive binding assay; class symbols A/B/C; read-out: TNF IC50
pIC50: −log10 of the molar value.
pIC50 by entry:

Solved entries (count: 6):
{"Compound": "c1ccc2c(c1)OCCC21COCc2nc3ccc(-c4cnc(N5CCOCC5)nc4)nc3n21 (stereo not drawn)", "pIC50": "> 6.00"}
{"Compound": "CC(O)(c1ncc(-c2ccc3nc4n(c3n2)[C@@H](c2ccccc2)CC4)cn1)C1CCOCC1 (stereo partly drawn)", "pIC50": "5.00 to 6.00"}
{"Compound": "c1ccc(C2COCc3nc4ccc(-c5cnc6nonc6c5)cc4n32)cc1 (stereo not drawn)", "pIC50": "5.00 to 6.00"}
{"Compound": "CC(O)C(=O)N1CCN(c2ncc(-c3ccc4nc5n(c4n3)C(c3ccccc3)COC5)cn2)CC1 (stereo not drawn)", "pIC50": "5.00 to 6.00"}
{"Compound": "COc1ccccc1C1CCc2nc3ccc(-c4cnc(N5CCC(O)CC5)nc4)nc3n21 (stereo not drawn)", "pIC50": "> 6.00"}
{"Compound": "OC1CCN(c2ncc(-c3ccc4nc5n(c4n3)[C@@H](c3ccccc3)CC5)cn2)CC1", "pIC50": "> 6.00"}

Query block: Field request: pIC50 | item: c1ccc(C2COCc3nc4ccc(-c5ccc(N6CCOCC6)nc5)cc4n32)cc1 (stereo not drawn)
Result block: > 6.00

Query block: Next entry: C[C@@H]1CN(c2ncc(-c3ccc4nc5n(c4n3)C3(COC5)COc4ccccc43)cn2)CCN1C(=O)CO (stereo partly drawn)
Result block: > 6.00

Query block: Next entry: COc1ccccc1C1CCc2nc3ccc(-c4cnc(N5CCOCC5)nc4)cn3c21 (stereo not drawn)
Result block: > 6.00
